pIC50, Serine protease 1 (Bos taurus, UniProt P00760), per-entry values.
When answering, recall that pIC50 equals minus log10 of the concentration in mol/L, and write that number alone.

Would you please look over these solved cases?
compound="C/C=C\\Cc1ccc(-c2ccc(C(=O)NCC(C)C)cc2C(=O)O)c(C(=O)Nc2ccc(C(=N)N)cc2)c1 [substituted biphenyl derivative, 36j]" observable=pIC50 measured_value=5.87
compound="CC(C)CNC(=O)c1ccc(-c2ccc(-c3ccccc3)cc2C(=O)Nc2ccc(C(=N)N)cc2)c(C(=O)O)c1 [substituted biphenyl derivative, 36v]" observable=pIC50 measured_value=6.38

## Input pIC50 for CC(C)CNC(=O)c1ccc(-c2ccc(-c3ccc[nH]3)cc2C(=O)Nc2ccc(C(=N)N)cc2)c(C(=O)O)c1 [substituted biphenyl derivative, 36ad] ?
## Output 6.37

###

IC50, Serine protease 1 (Bos taurus, UniProt P00760), per-entry values.
Reply with just the number (in nM).

Would you please look over these solved cases?
compound="C=C=Cc1ccc(-c2ccc(C(=O)NCC(C)C)cc2C(=O)O)c(C(=O)Nc2ccc(C(=N)N)cc2)c1 [substituted biphenyl derivative, 36h]" observable=IC50 unit_text=nM measured_value=560
compound="CC(C)CNC(=O)c1ccc(-c2ccc(C#CCCO)cc2C(=O)Nc2ccc(C(=N)N)cc2)c(C(=O)O)c1 [substituted biphenyl derivative, 36q]" observable=IC50 unit_text=nM measured_value=400

## Input Request - read-out IC50 | tested on Serine protease 1 (Bos taurus, UniProt P00760) | compound CC(C)=CCc1ccc(-c2ccc(C(=O)NCC(C)C)cc2C(=O)O)c(C(=O)Nc2ccc(C(=N)N)cc2)c1 [substituted biphenyl derivative, 36k]
## Output 950

###

- target_under_test: Serine protease 1 (Bos taurus, UniProt P00760)
- method_notes: TF-FVIIa Enzyme Inhibition Assay
- run_parameters: 25 °C
Label key: Met means IC50 under 500 nM; Not met means IC50 of 500 nM or more.

Please review the following examples before continuing.
compound="CC(C)CNC(=O)c1ccc(-c2ccc(Cc3ccccc3)cc2C(=O)Nc2ccc(C(=N)N)cc2)c(C(=O)O)c1 [substituted biphenyl derivative, 36w]" category="Not met"
compound="CC(C)CNC(=O)c1ccc(-c2ccc(O)cc2C(=O)Nc2ccc(C(=N)N)cc2)c(C(=O)O)c1 [substituted biphenyl derivative, 36a]" category=Met
compound="CC(C)CNC(=O)c1ccc(-c2ccc(-c3cscc3CN)cc2C(=O)Nc2ccc(C(=N)N)cc2)c(C(=O)O)c1 [substituted biphenyl derivative, 36an]" category="Not met"

## Input Find out if reported IC50 for CC(C)CNC(=O)c1ccc(-c2ccc(Cc3cccs3)cc2C(=O)Nc2ccc(C(=N)N)cc2)c(C(=O)O)c1 [substituted biphenyl derivative, 36ag] is less than 500 nM
## Output Not met

## Input Find out if reported IC50 for C=C(C)c1ccc(-c2ccc(C(=O)NCC(C)C)cc2C(=O)O)c(C(=O)Nc2ccc(C(=N)N)cc2)c1 [substituted biphenyl derivative, 36g] is less than 500 nM
## Output Not met

## Input Find out if reported IC50 for C=Cc1ccc(-c2ccc(C(=O)NCC(C)C)cc2C(=O)O)c(C(=O)Nc2ccc(C(=N)N)cc2)c1 [substituted biphenyl derivative, 36b] is less than 500 nM
## Output Met

###

- target_under_test: Serine protease 1 (Bos taurus, UniProt P00760)
- Sequence (P00760 whole entry): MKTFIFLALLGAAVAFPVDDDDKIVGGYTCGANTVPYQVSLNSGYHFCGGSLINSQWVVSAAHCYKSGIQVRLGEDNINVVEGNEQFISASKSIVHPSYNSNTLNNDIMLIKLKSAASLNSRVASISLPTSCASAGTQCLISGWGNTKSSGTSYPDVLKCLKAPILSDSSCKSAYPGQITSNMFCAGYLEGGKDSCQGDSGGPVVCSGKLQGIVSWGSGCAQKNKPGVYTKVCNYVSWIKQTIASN
observable: IC50 (nM)
Reply with just the number (in nM).

Would you please look over these solved cases?
compound="CC(C)CNC(=O)c1ccc(-c2ccc(-c3cscc3CO)cc2C(=O)Nc2ccc(C(=N)N)cc2)c(C(=O)O)c1 [substituted biphenyl derivative, 36ak]" target_under_test="Serine protease 1 (Bos taurus, UniProt P00760)" measured_value=510
compound="CC(C)CNC(=O)c1ccc(-c2ccc(-c3cocc3CO)cc2C(=O)Nc2ccc(C(=N)N)cc2)c(C(=O)O)c1 [substituted biphenyl derivative, 36ap]" target_under_test="Serine protease 1 (Bos taurus, UniProt P00760)" measured_value=2290
compound="CC(C)CNC(=O)c1ccc(-c2ccc(/C=C\\CO)cc2C(=O)Nc2ccc(C(=N)N)cc2)c(C(=O)O)c1 [substituted biphenyl derivative, 36m]" target_under_test="Serine protease 1 (Bos taurus, UniProt P00760)" measured_value=1770

## Input IC50 for C=C(CCO)c1ccc(-c2ccc(C(=O)NCC(C)C)cc2C(=O)O)c(C(=O)Nc2ccc(C(=N)N)cc2)c1 [substituted biphenyl derivative, 36o] ?
## Output 2190

## Input IC50 for CC(C)CNC(=O)c1ccc(-c2ccc(-c3ccoc3)cc2C(=O)Nc2ccc(C(=N)N)cc2)c(C(=O)O)c1 [substituted biphenyl derivative, 36ac] ?
## Output 470

## Input IC50 for C#Cc1ccc(-c2ccc(C(=O)NCC(C)C)cc2C(=O)O)c(C(=O)Nc2ccc(C(=N)N)cc2)c1 [substituted biphenyl derivative, 36f] ?
## Output 2870

## Input IC50 for CC(C)CNC(=O)c1ccc(-c2ccc(-c3ccsc3)cc2C(=O)Nc2ccc(C(=N)N)cc2)c(C(=O)O)c1 [substituted biphenyl derivative, 36aa] ?
## Output 380

## Input IC50 for CC(C)CNC(=O)c1ccc(-c2ccc(-c3ccco3)cc2C(=O)Nc2ccc(C(=N)N)cc2)c(C(=O)O)c1 [substituted biphenyl derivative, 36ab] ?
## Output 370

## Input IC50 for CC(C)CNC(=O)c1ccc(-c2ccc(-c3ccoc3CO)cc2C(=O)Nc2ccc(C(=N)N)cc2)c(C(=O)O)c1 [substituted biphenyl derivative, 36ao] ?
## Output 740
